Collected clearance values appear next to each entry.
- PROTOCOL_TEXT: Clearance in rat at 1 mg/kg, iv or 2 mg/kg, po
- Type: ADME, organism-based
- DETAILS: in vivo
A number alone suffices; assume mL/min/kg.

Solved entries:
COc1ccc2c(c1)CC(c1nc3ccc(-c4ccnc(N)n4)cc3o1)CO2 (stereo not drawn): 8.4
COc1ccc2c(c1)CC(c1nc3c(F)cc(-c4ccnc(N)n4)cc3[nH]1)CO2 (stereo not drawn): 12

--- query ---
Consider COc1ccc2c(c1)CC(c1nc3ccc(-c4ccnc(N)n4)cc3[nH]1)CO2 (stereo not drawn) . Its measured clearance is 17

###

- PROTOCOL_TEXT: Cmax in rat at 2 mg/kg, po
- Assay type: ADME, organism-based
- Parameters: dose 2 mg/kg, route oral
- DETAILS: in vivo
REPORTED_PROPERTY: Cmax (nM)
A number alone suffices; assume nM.

Solved entries:
COc1ccc2c(c1)CC(c1nc3c(F)cc(-c4ccnc(N)n4)cc3[nH]1)CO2 (stereo not drawn): 740
COc1ccc2c(c1)CC(c1nc3ccc(-c4ccnc(N)n4)cc3o1)CO2 (stereo not drawn): 970

Consider COc1ccc2c(c1)CC(c1nc3ccc(-c4ccnc(N)n4)cc3[nH]1)CO2 (stereo not drawn) . Its measured Cmax is 900

###

- TARGET_SYSTEM: Mitogen-activated protein kinase 8 (Homo sapiens)
- Sequence (P45983 whole entry): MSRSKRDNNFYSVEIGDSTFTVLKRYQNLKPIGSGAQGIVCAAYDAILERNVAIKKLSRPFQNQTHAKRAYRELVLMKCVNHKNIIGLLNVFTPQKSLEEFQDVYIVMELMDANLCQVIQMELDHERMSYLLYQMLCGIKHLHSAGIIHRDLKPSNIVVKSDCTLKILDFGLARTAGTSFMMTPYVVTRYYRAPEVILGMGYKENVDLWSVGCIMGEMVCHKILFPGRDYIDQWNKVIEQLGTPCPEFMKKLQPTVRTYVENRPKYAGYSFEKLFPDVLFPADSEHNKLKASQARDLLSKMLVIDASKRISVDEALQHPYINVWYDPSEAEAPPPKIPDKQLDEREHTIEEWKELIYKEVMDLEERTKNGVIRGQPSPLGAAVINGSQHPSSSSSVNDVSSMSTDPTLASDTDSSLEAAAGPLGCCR
- PROTOCOL_TEXT: Inhibition of JNK1
REPORTED_PROPERTY: IC50 (µM)
A number alone suffices; assume µM.

Consider COc1ccc2c(c1)CC(c1nc3c(F)cc(-c4ccnc(N)n4)cc3[nH]1)CO2 (stereo unspecified) . Its measured IC50 is 14.1

###

- TARGET_SYSTEM: UniProtKB P11712
- Sequence (P11712 whole entry): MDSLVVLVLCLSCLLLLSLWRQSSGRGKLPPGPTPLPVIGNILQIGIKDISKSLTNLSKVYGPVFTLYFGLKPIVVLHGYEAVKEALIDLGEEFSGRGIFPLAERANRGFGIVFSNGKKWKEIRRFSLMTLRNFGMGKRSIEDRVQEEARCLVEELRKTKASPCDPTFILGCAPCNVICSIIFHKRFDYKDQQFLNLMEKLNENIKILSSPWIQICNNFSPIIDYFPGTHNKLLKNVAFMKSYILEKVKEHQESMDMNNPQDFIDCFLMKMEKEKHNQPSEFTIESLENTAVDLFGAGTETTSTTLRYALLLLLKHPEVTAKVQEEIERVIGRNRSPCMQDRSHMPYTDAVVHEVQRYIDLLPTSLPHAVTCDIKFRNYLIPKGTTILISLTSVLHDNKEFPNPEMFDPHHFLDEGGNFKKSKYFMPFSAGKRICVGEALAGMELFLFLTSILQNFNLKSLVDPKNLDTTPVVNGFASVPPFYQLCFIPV
- PROTOCOL_TEXT: Inhibition of CYP2C9 at 10 uM
- Assay type: ADME
Entry flag: Yes if inhibition at 10 µM reaches 10%; No if it does not.

Look over these answered cases.
Nc1nccc(-c2ccc3nc(C4COc5ccccc5C4)oc3c2)n1 (stereo not given): No
c1ccc2c(c1)CC(c1nc3ccc(-c4cn[nH]c4)cc3[nH]1)CO2 (stereo not given): Yes
c1ccc2c(c1)CC(c1nc3ccc(-c4ccncc4)cc3[nH]1)CO2 (stereo not given): Yes
Nc1nccc(-c2ccc3nc(C4COc5ccccc5C4)[nH]c3c2)n1 (stereo not given): Yes

In: Confirm if inhibition at 10 µM reported for the compound c1ccc2c(c1)CC(c1nc3ccc(-c4cn[nH]c4)cc3o1)CO2 (stereo not given) is 10% or above.
Out: Yes

###

- PROTOCOL_TEXT: Oral bioavailability in rat at 2 mg/kg
- Type: ADME, organism-based
- DETAILS: in vivo
Collected bioavailability values appear next to each entry.
A number alone suffices; assume %.

Solved entries:
COc1ccc2c(c1)CC(c1nc3ccc(-c4ccnc(N)n4)cc3[nH]1)CO2 (stereo not drawn): 35
COc1ccc2c(c1)CC(c1nc3c(F)cc(-c4ccnc(N)n4)cc3[nH]1)CO2 (stereo not drawn): 29

--- query ---
Consider COc1ccc2c(c1)CC(c1nc3ccc(-c4ccnc(N)n4)cc3o1)CO2 (stereo not drawn) . Its measured bioavailability is 63

###

- TARGET_SYSTEM: CYP3A4 (Homo sapiens)
- Sequence (P08684 whole entry): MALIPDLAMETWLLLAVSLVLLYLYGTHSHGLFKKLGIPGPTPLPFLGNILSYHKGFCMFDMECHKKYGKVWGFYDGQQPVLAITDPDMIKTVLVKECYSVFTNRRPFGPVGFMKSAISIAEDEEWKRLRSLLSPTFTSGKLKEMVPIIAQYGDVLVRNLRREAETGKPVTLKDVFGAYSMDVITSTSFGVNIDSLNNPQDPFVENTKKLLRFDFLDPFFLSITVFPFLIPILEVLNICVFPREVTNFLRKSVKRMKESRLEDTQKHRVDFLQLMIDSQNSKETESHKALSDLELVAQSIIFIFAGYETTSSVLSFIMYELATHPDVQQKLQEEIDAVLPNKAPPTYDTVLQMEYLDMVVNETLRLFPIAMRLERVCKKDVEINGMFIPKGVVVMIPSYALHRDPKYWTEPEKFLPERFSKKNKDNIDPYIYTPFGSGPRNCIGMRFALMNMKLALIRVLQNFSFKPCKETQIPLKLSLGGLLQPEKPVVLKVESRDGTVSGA
- PROTOCOL_TEXT: Inhibition of CYP3A4 at 10 uM
- Format: ADME
Collected inhibition at 10 µM values appear next to each entry.

Solved entries:
Nc1nccc(-c2ccc3nc(C4COc5ccccc5C4)oc3c2)n1 (stereo not given): -6%
Nc1nccc(-c2ccc3nc(C4COc5ccccc5C4)[nH]c3c2)n1 (stereo not given): -3%
c1ccc2c(c1)CC(c1nc3ccc(-c4ccncc4)cc3[nH]1)CO2 (stereo not given): 96%
c1ccc2c(c1)CC(c1nc3ccc(-c4cn[nH]c4)cc3[nH]1)CO2 (stereo not given): 47%

Consider c1ccc2c(c1)CC(c1nc3ccc(-c4cn[nH]c4)cc3o1)CO2 (stereo not given) . Its measured inhibition at 10 µM is 15%

###

- TARGET_SYSTEM: CYP1A2 (Homo sapiens, UniProt P05177)
- Sequence (P05177 whole entry): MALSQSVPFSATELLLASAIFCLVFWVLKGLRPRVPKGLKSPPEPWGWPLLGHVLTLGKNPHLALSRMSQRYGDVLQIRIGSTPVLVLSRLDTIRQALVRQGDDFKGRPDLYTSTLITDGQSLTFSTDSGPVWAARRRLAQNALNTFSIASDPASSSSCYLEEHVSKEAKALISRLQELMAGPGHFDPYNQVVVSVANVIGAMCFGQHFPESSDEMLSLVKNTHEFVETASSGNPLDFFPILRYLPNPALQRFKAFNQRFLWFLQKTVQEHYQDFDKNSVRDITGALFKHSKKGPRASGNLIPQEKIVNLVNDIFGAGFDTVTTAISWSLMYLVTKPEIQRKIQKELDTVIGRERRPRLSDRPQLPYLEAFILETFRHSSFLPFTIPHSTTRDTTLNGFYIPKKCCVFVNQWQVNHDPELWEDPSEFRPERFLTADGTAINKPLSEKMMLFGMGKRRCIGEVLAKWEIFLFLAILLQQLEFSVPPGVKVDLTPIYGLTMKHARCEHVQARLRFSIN
- PROTOCOL_TEXT: Inhibition of CYP1A2 at 10 uM
- Type: ADME
Entry flag: True if inhibition at 10 µM reaches 30%; False if it does not.

Look over these answered cases.
c1ccc2c(c1)CC(c1nc3ccc(-c4ccncc4)cc3[nH]1)CO2 (stereo not given): True
Nc1nccc(-c2ccc3nc(C4COc5ccccc5C4)oc3c2)n1 (stereo not given): False
c1ccc2c(c1)CC(c1nc3ccc(-c4cn[nH]c4)cc3[nH]1)CO2 (stereo not given): True
Nc1nccc(-c2ccc3nc(C4COc5ccccc5C4)[nH]c3c2)n1 (stereo not given): True

In: Confirm if inhibition at 10 µM reported for the molecule c1ccc2c(c1)CC(c1nc3ccc(-c4cn[nH]c4)cc3o1)CO2 (stereo not given) is 30% or above.
Out: False

###

- TARGET_SYSTEM: UniProt:P10635
- Sequence (P10635 whole entry): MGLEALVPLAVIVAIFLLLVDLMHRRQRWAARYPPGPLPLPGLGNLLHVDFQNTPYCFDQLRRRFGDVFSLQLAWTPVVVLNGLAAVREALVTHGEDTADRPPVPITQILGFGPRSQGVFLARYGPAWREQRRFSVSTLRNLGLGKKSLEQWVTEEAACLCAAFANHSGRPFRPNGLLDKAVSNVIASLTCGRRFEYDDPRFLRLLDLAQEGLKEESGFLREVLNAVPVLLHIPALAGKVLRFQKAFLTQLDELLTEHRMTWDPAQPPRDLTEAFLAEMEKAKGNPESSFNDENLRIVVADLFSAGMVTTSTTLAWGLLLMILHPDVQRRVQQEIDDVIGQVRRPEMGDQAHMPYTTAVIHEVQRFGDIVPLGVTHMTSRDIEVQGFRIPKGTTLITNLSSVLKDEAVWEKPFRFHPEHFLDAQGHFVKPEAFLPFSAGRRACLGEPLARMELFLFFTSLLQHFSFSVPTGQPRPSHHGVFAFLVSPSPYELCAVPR
- PROTOCOL_TEXT: Inhibition of CYP2D6 at 10 uM
- Assay type: ADME
Entry flag: criterion met if inhibition at 10 µM reaches 20%; criterion not met if it does not.

c1ccc2c(c1)CC(c1nc3ccc(-c4cn[nH]c4)cc3[nH]1)CO2 (stereo not given): criterion met
c1ccc2c(c1)CC(c1nc3ccc(-c4cn[nH]c4)cc3o1)CO2 (stereo not given): criterion met
Nc1nccc(-c2ccc3nc(C4COc5ccccc5C4)oc3c2)n1 (stereo not given): criterion not met
Nc1nccc(-c2ccc3nc(C4COc5ccccc5C4)[nH]c3c2)n1 (stereo not given): criterion not met

Next compound, please.
In: Confirm if inhibition at 10 µM reported for the compound c1ccc2c(c1)CC(c1nc3ccc(-c4ccncc4)cc3[nH]1)CO2 (stereo not given) is 20% or above.
Out: criterion met

###

- TARGET_SYSTEM: Rho-associated protein kinase 2 (Homo sapiens)
- Sequence (O75116 whole entry): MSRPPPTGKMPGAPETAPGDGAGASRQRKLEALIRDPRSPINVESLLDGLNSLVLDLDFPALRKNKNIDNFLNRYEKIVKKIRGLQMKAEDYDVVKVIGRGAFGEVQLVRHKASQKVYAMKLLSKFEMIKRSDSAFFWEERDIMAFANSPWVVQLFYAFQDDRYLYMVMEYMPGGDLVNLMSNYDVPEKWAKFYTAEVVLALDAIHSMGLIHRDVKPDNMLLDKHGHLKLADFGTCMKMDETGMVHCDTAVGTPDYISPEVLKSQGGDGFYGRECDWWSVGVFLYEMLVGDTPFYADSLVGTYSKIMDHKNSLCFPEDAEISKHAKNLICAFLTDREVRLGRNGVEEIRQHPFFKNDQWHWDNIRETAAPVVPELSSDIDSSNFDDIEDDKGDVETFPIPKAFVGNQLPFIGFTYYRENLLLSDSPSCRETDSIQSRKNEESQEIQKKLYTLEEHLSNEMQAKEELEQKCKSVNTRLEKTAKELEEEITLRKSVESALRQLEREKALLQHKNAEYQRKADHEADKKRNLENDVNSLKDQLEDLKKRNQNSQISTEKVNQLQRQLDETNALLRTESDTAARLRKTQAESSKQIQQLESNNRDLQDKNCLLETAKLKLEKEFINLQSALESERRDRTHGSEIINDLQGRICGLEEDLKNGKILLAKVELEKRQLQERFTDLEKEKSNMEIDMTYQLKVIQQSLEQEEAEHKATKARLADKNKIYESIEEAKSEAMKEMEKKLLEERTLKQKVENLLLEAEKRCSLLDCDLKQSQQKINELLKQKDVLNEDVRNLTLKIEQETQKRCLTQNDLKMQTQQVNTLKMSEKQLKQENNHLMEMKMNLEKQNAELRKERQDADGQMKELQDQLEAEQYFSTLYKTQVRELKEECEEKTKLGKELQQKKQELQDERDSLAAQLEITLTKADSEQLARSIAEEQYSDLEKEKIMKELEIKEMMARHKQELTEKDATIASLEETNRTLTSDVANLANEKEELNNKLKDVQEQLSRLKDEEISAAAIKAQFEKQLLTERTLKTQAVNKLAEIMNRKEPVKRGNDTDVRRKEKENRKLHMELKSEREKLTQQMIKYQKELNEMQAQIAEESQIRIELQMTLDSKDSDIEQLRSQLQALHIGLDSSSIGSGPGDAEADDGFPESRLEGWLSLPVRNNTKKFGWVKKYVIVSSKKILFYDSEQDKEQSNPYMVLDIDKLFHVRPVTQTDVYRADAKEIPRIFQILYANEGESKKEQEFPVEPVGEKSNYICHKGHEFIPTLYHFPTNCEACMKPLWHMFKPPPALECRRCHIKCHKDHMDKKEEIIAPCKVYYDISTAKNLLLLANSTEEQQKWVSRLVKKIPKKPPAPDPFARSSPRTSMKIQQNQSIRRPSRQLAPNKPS
- PROTOCOL_TEXT: Inhibition of ROCK2 assessed as myosin light chain phosphorylation by cell-based assay
Collected pIC50 values appear next to each entry.
Would you please state pIC50, meaning minus log10 of the concentration in mol/L, as a bare number?

Solved entries:
Nc1nccc(-c2ccc3nc(C4COc5ccc(C(=O)NCc6ccccc6)cc5C4)[nH]c3c2)n1 (configuration not stated): 7.64
Cc1[nH]ncc1-c1ccc2nc(C3COc4ccccc4C3)oc2c1 (configuration not stated): 6.27
COc1ccc2c(c1)CC(c1nc3ccc(-c4ccnc(N)n4)cc3o1)CO2 (configuration not stated): 7.34
c1ccc2c(c1)CC(c1nc3ccc(-c4cn[nH]c4)cc3[nH]1)CO2 (configuration not stated): 7.07
Nc1nccc(-c2ccc3nc(C4COc5ccccc5C4)[nH]c3c2)n1 (configuration not stated): 7.18

--- query ---
Nc1nccc(-c2ccc3nc(C4COc5ccc(F)cc5C4)oc3c2)n1 (configuration not stated) on Rho-associated protein kinase 2 (Homo sapiens) gives pIC50 = 7.55

###

- TARGET_SYSTEM: UniProtKB O75116
- PROTOCOL_TEXT: Inhibition of ROCK2 assessed as myosin light chain phosphorylation by cell-based assay
Collected pIC50 values appear next to each entry.
Would you please state pIC50, meaning minus log10 of the concentration in mol/L, as a bare number?

Solved entries:
c1ccc2c(c1)CC(c1nc3ccc(-c4cn[nH]c4)cc3o1)CO2 (stereo not given): 6.48
COc1ccc2c(c1)CC(c1nc3ccc(-c4ccnc(N)n4)cc3[nH]1)CO2 (stereo not given): 7.00
Nc1nccc(-c2ccc3nc(C4COc5ccc(C(=O)NC6CC6)cc5C4)[nH]c3c2)n1 (stereo not given): 6.67

COC(=O)c1ccc2c(c1)CC(c1nc3ccc(-c4ccnc(N)n4)cc3[nH]1)CO2 (stereo not given) on UniProtKB O75116 gives pIC50 = 6.57

###

- PROTOCOL_TEXT: Metabolic stability in human liver microsomes
- Assay type: ADME, Microsome
REPORTED_PROPERTY: half-life (min)
A number alone suffices; assume min.

Solved entries:
Nc1nccc(-c2ccc3nc(C4COc5ccc(F)cc5C4)oc3c2)n1 (stereo not given): 91
Nc1nccc(-c2ccc3nc(C4COc5ccc(F)cc5C4)[nH]c3c2)n1 (stereo not given): 45
c1ccc2c(c1)CC(c1nc3ccc(-c4cn[nH]c4)cc3o1)CO2 (stereo not given): 40
Nc1nccc(-c2ccc3nc(C4COc5ccccc5C4)oc3c2)n1 (stereo not given): 57

--- query ---
Consider Nc1nccc(-c2ccc3nc(C4COc5ccc(C(=O)NCc6ccccc6)cc5C4)[nH]c3c2)n1 (stereo not given) . Its measured half-life is 25

###

- PROTOCOL_TEXT: Inhibition of PKA
REPORTED_PROPERTY: pIC50
Would you please state pIC50, meaning minus log10 of the concentration in mol/L, as a bare number?

Solved entries:
Nc1nccc(-c2ccc3nc(C4COc5ccc(F)cc5C4)oc3c2)n1 (stereo unspecified): 5.54
COC(=O)c1ccc2c(c1)CC(c1nc3ccc(-c4ccnc(N)n4)cc3[nH]1)CO2 (stereo unspecified): 4.99
Nc1nccc(-c2ccc3nc(C4COc5ccc(C(=O)NC6CC6)cc5C4)[nH]c3c2)n1 (stereo unspecified): 6.17
c1ccc2c(c1)CC(c1nc3ccc(-c4ccncc4)cc3[nH]1)CO2 (stereo unspecified): 6.50
CC(C)Oc1ccc2c(c1)CC(c1nc3ccc(-c4ccnc(N)n4)cc3[nH]1)CO2 (stereo unspecified): 5.20

--- query ---
Consider Cc1[nH]ncc1-c1ccc2nc(C3COc4ccccc4C3)oc2c1 (stereo unspecified) . Its measured pIC50 is 6.11
